# Test system: MCF7 breast
# Assay Comment: NCI-60 one-dose screen, 48 h (100 = growth as untreated, 0 = no growth, -100 = all killed)
# Condition Label: 10 µM unless noted
This is part of a sample that, as a whole, favours compounds with a hit. Of some 83,000 tested, about 20% had one in any assay.
Please go through the items and note down their growth.
State just the number; it will be interpreted in %.

Problem: Request the reported growth associated with OC1CCN(CCCOc2c3ccccc3nc3c2oc2ccc(Cl)cc23)CC1
Result: 2.99

Problem: Request the reported growth associated with COc1ccc(NC(=O)c2sc3nc(-c4cnccn4)cc(-c4cccs4)c3c2N)cc1
Result: 57.4

Problem: Request the reported growth associated with COc1ccc(-c2nc3ccc(-c4nnc(SCC(=O)Nc5ccc(C(C)=O)cc5)o4)cc3[nH]2)cc1
Result: 77.1

Problem: Request the reported growth associated with Clc1ccc2oc3c(NCCCn4ccnc4)c4ccccc4nc3c2c1
Result: 8.8

Problem: Request the reported growth associated with COc1cccc(N2CCN(c3ncnc4c3[nH]c3ccc(F)cc34)C[C@@H]2C)c1
Result: 0.969

Problem: Request the reported growth associated with Cn1c(SCC(=O)c2cccs2)nc2ccccc2c1=O
Result: 62.4

Problem: Request the reported growth associated with N/C(=N\c1nc2c(Br)cccc2s1)C(Br)Br
Result: -26.3

Problem: Request the reported growth associated with COc1cc(OC)c(S(=O)(=O)NNC(=O)c2ccncc2)cc1C(=O)/C=C/c1ccc(C)cc1
Result: 26.7

Problem: Request the reported growth associated with O=C(N/N=C/c1ccc[nH]1)c1[nH]c2ccc(Br)cc2c1-c1ccccc1
Result: 3.98

Problem: Request the reported growth associated with COc1cc(-c2ccc3ncnc(NC(C)c4ccccc4)c3c2)cnc1OC (stereo not given)
Result: 23.7
